Molecular target: Pim-1 (Homo sapiens (Human), UniProt P11309)
Sequence (P11309 whole entry): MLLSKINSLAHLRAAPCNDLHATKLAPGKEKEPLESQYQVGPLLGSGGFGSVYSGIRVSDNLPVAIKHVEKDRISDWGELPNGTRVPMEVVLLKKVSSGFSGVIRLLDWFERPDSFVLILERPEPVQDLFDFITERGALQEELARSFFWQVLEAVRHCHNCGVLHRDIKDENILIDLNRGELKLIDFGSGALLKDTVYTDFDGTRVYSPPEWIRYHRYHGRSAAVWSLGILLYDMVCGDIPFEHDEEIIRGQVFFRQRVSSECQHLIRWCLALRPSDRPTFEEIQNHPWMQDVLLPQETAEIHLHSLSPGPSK
Experiment: Pim enzyme assay (HTRF, 96-well), Pim-1
Type: biochemical
Details: full length recombinant Pim-1, biotinylated-BAD (S112) peptide, 10-point curve, 2 h RT, read-out: Pim-1 IC50 IP
pIC50: −log10 of the molar value.
Short version: pIC50 at least 8 is T, less is F.

[
  {
    "compound": "O=C1NCCn2cc(-c3cccc4ccc(Nc5cccnc5)nc34)cc21",
    "label.value": "T"
  },
  {
    "compound": "O=C1NCCc2[nH]c(-c3cccc4ccc(NC5CCCCC5)nc34)cc21",
    "label.value": "T"
  },
  {
    "compound": "Cc1nc2cccc(-c3cc4c([nH]3)CCNC4=O)c2nc1N1CCOCC1",
    "label.value": "F"
  },
  {
    "compound": "Cc1cccc(C)c1Oc1ccc2cccc(-c3cc4c([nH]3)CCNC4=O)c2n1",
    "label.value": "F"
  },
  {
    "compound": "COC(=O)N(c1ccccc1)c1ccc2cccc(-c3cc4c([nH]3)CCNC4=O)c2n1",
    "label.value": "F"
  },
  {
    "compound": "Cc1nc2cccc(-c3cc4c([nH]3)CCNC4=O)c2nc1N[C@@H](C)C(N)=O",
    "label.value": "F"
  },
  {
    "compound": "Cc1nc2cccc(-c3cc4c([nH]3)CCNC4=O)c2nc1NC(C)(C)C",
    "label.value": "T"
  },
  {
    "compound": "N[C@@H]1CCC[C@H](Nc2ccc3cccc(-c4cc5c([nH]4)CCNC5=O)c3n2)C1 (single isomer, unassigned) [Example 121]",
    "label.value": "T"
  },
  {
    "compound": "Cc1cc2cccc(-c3cc4c([nH]3)CCNC4=O)c2nc1Nc1ccccc1",
    "label.value": "T"
  }
]

---

Molecular target: UniProtKB Q9P1W9
Test: Pim enzyme assay (HTRF, 96-well), Pim-2
Assay type: biochemical
Conditions: full length recombinant Pim-2, biotinylated-BAD (S112) peptide, 10-point curve, 45 min RT, read-out: Pim-2 IC50 IP
The following ranges of IC50 define the classes used here: band 1: < 5 nM; band 2: ≥ 5 nM and < 30 nM; band 3: ≥ 30 nM

[
  {
    "compound": "O=C1NCCc2[nH]c(-c3cccc4ccc(Nc5ccccc5Cl)nc34)cc21 [Example 108]",
    "label.value": "band 2"
  },
  {
    "compound": "O=C1NCCc2[nH]c(-c3cccc4ccc(Oc5cccc(Cl)c5)nc34)cc21 [Example 41]",
    "label.value": "band 3"
  },
  {
    "compound": "Cc1nc2cccc(-c3cc4c([nH]3)CCNC4=O)c2nc1NC1(CO)CCC1 [Example 146]",
    "label.value": "band 2"
  },
  {
    "compound": "Cc1nc2cccc(-c3cc4c([nH]3)CCNC4=O)c2nc1NCC(C)(C)C [Example 147]",
    "label.value": "band 1"
  },
  {
    "compound": "O=c1[nH]ccc2[nH]c(-c3cccc4ccc(Nc5c(F)cccc5Cl)nc34)cc12 [Example 12]",
    "label.value": "band 2"
  },
  {
    "compound": "N[C@@H]1CCC[C@H](Nc2ccc3cccc(-c4cc5c([nH]4)CCNC5=O)c3n2)C1 (single isomer, unassigned) [Example 122]",
    "label.value": "band 1"
  },
  {
    "compound": "O=C1NCCc2[nH]c(-c3cccc4ccc(NC5CCCCC5)nc34)cc21 [Example 83]",
    "label.value": "band 2"
  },
  {
    "compound": "C[C@@H](Nc1ccc2cccc(-c3cc4c([nH]3)CCNC4=O)c2n1)c1ccccc1 [Example 111]",
    "label.value": "band 3"
  },
  {
    "compound": "Cc1nc2cccc(-c3cc4c([nH]3)CCNC4=O)c2nc1NC(C)(C)C [Example 193]",
    "label.value": "band 1"
  },
  {
    "compound": "O=C1NCCc2[nH]c(-c3cccc4ccc(O[C@@H]5CCCNC5)nc34)cc21 [Example 89]",
    "label.value": "band 3"
  },
  {
    "compound": "N[C@H]1CCC[C@H](Nc2ccc3cccc(-c4cc5c([nH]4)CCNC5=O)c3n2)C1 (racemic) [Example 120]",
    "label.value": "band 1"
  },
  {
    "compound": "O=c1[nH]cnc2[nH]c(-c3cccc4ccc(Nc5ccccc5)nc34)cc12 [Example 16]",
    "label.value": "band 2"
  },
  {
    "compound": "O=C1NCCn2cc(-c3cccc4ccc(Nc5cccnc5)nc34)cc21 [Example 166]",
    "label.value": "band 1"
  },
  {
    "compound": "CC1CNC(=O)c2cc(-c3cccc4ccc(Oc5ccccc5)nc34)[nH]c21 (racemic) [Example 28]",
    "label.value": "band 3"
  }
]

---

Biological target: Pim-2 (Homo sapiens (Human))
Assay: Pim enzyme assay (HTRF, 96-well), Pim-2
Format: biochemical
Conditions: full length recombinant Pim-2, biotinylated-BAD (S112) peptide, 10-point curve, 45 min RT, read-out: Pim-2 IC50 IP
pIC50: −log10 of the molar value.
Listed compounds paired with reported pIC50
property.label: pIC50

[
  {
    "compound": "O=C1NCCc2[nH]c(-c3cccc4ncc(Nc5ccccc5)nc34)cc21 [Example 180]",
    "readout.value": 8.55
  },
  {
    "compound": "Cc1nc2cccc(-c3cc4c([nH]3)CCNC4=O)c2nc1N1CCCC1 [Example 138]",
    "readout.value": 7.52
  },
  {
    "compound": "Cc1nc2cccc(-c3cc4c([nH]3)CCNC4=O)c2nc1N[C@H](C)C(N)=O [Example 128]",
    "readout.value": 6.65
  },
  {
    "compound": "O=C1NCCc2[nH]c(-c3cccc4ccc(Oc5cccnc5)nc34)cc21 [Example 39]",
    "readout.value": 8.34
  },
  {
    "compound": "O=C1NCCc2[nH]c(-c3cccc4ccc(NC5CCCC5)nc34)cc21 [Example 78]",
    "readout.value": 7.72
  },
  {
    "compound": "O=C1NCCc2[nH]c(-c3cccc4ccc(NCc5ccccc5)nc34)cc21 [Example 21]",
    "readout.value": 7.67
  },
  {
    "compound": "C=C(c1ccccc1)c1ccc2cccc(-c3cc4c([nH]3)CCNC4=O)c2n1 [Example 113]",
    "readout.value": 8.09
  },
  {
    "compound": "O=C1NCCc2[nH]c(-c3cccc4ccc(Oc5ccccc5)nc34)cc21 [Example 37]",
    "readout.value": 7.86
  }
]

---

Attribute: pIC50
Target: UniProt P11309
Assay: Pim-Mn enzyme assay (HTRF, 384-well), Pim-1
Type: biochemical
Conditions: Pim-1 enzyme 5 pM, ATP 1.5 μM, BAD (S112) 0.5 μM, HTRF, 22-point curve; read-out: Pim-1-Mn IC50 IP
pIC50: −log10 of the molar value.
property.label: pIC50

[
  {
    "mol": "C[C@H]1NC(=O)c2cc(-c3cccc4c(=O)n(CCCO)c(NC(C)(C)C)nc34)[nH]c21",
    "readout.value": 9.92
  },
  {
    "mol": "Cc1nc2cccc(-c3cc4c([nH]3)[C@@H](C)NC4=O)c2nc1N[C@H]1CCC[C@@H](N)C1",
    "readout.value": 10.22
  },
  {
    "mol": "CC(C)(C)Nc1cnc2cccc(-c3cc4c([nH]3)CCNC4=O)c2n1",
    "readout.value": 9.70
  },
  {
    "mol": "Cc1nc2cccc(-c3cc4c([nH]3)CCNC4=O)c2nc1OC1CCC1",
    "readout.value": 7.74
  },
  {
    "mol": "Cc1nc2cccc(-c3cc4c([nH]3)CCNC4=O)c2nc1NC(C)(C)CNCCS(C)(=O)=O",
    "readout.value": 7.55
  },
  {
    "mol": "Cc1nc2ccc(F)c(-c3cc4c([nH]3)[C@@H](C)NC4=O)c2nc1NC1CC1",
    "readout.value": 10.55
  }
]

---

Molecular target: Pim-2 (Homo sapiens (Human), UniProt Q9P1W9)
Sequence (Q9P1W9 whole entry): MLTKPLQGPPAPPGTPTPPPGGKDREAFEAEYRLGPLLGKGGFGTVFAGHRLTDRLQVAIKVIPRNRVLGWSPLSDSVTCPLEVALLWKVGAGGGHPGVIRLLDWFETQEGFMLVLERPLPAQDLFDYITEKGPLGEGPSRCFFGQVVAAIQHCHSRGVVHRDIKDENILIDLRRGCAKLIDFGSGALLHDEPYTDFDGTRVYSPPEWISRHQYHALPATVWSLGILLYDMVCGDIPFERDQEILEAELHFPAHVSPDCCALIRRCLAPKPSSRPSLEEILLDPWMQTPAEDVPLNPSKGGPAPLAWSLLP
Assay: Pim-Mn enzyme assay (HTRF, 384-well), Pim-2
Type: biochemical
Conditions: Pim-2 enzyme 0.5 pM, ATP 1.5 μM, BAD (S112) 0.5 μM, HTRF, 22-point curve; read-out: Pim-2-Mn IC50 IP
pIC50: −log10 of the molar value.
property.label: pIC50

[
  {
    "compound": "Cc1nc2cccc(-c3cc4c([nH]3)CCNC4=O)c2nc1OC1CCC1",
    "property.label": "pIC50",
    "readout.value": 7.91
  },
  {
    "compound": "COCC(C)(C)Nc1nc2c(-c3cc4c([nH]3)CCNC4=O)cccc2nc1C [Example 63]",
    "property.label": "pIC50",
    "readout.value": 8.27
  },
  {
    "compound": "Cc1nc2cccc(-c3cc4c([nH]3)[C@@H](C)NC4=O)c2nc1N[C@H]1CCC[C@@H](NC(=O)[C@H](N)CO)C1",
    "property.label": "pIC50",
    "readout.value": 9.80
  },
  {
    "compound": "Cc1nc2cccc(-c3cc4c([nH]3)CCNC4=O)c2nc1N[C@H]1CCCNC1",
    "property.label": "pIC50",
    "readout.value": 7.57
  },
  {
    "compound": "Cc1nc2cccc(-c3cc4c([nH]3)CCNC4=O)c2nc1NC(=N)N",
    "property.label": "pIC50",
    "readout.value": 6.86
  },
  {
    "compound": "Cc1nc2cccc(-c3cc4c([nH]3)CCNC4=O)c2nc1N[C@H]1CC[C@@H](N)C1 (single isomer, unassigned) [Example 142]",
    "property.label": "pIC50",
    "readout.value": 8.85
  },
  {
    "compound": "COc1nc2cccc(-c3cc4c([nH]3)CCNC4=O)c2nc1NC(C)(C)C",
    "property.label": "pIC50",
    "readout.value": 8.30
  },
  {
    "compound": "CC(C)Nc1nc2c(-c3cc4c([nH]3)CCNC4=O)cccc2c(=O)n1-c1ccccc1",
    "property.label": "pIC50",
    "readout.value": 8.23
  },
  {
    "compound": "Cc1nc2cccc(-c3cc4n(c3)C(=O)NC4)c2nc1NC(C)(C)C",
    "property.label": "pIC50",
    "readout.value": 6.72
  }
]

From: patent US9394297B2
